Tested on: HEK-293T
Experiment: Multiplex assay against HEK293T
Format: toxicity, cell-based
Settings: human, 12 h, 1 µM, compound concentration 1 uM, replicate 2
Tag: 1 if measured Population Fragmented Nuclei (%) is not below 4%, -1 if it is.

>  <compound>
Cc1ccc(C(=O)Nc2cccc(C(F)(F)F)c2)cc1Nc1nc(-c2cccnc2)nc2c1cnn2C

>  <category>
1

$$$$
>  <compound>
CN1C2CCC1CC(OC(c1ccc(F)cc1)c1ccc(F)cc1)C2.Cl (stereo not given)

>  <category>
-1

$$$$
>  <compound>
CN[C@@H]1C[C@H]2O[C@@](C)([C@@H]1OC)n1c3ccccc3c3c4c(c5c6ccccc6n2c5c31)C(=O)NC4 [STAUROSPORINE]

>  <category>
1

$$$$
>  <compound>
Cc1cc(C)c(S(=O)(=O)N(Cc2ccc(-c3cccc(S(C)(=O)=O)c3)cc2)Cc2ccc(C(F)(F)F)o2)c(C)c1

>  <category>
1

$$$$
>  <compound>
COc1ccc(-c2ccc3c(N4CCOCC4)nc(N4C[C@@H](C)O[C@@H](C)C4)nc3n2)cc1CO [Ku-0063794]

>  <category>
1

$$$$
>  <compound>
O=C(Nc1ccc(-c2ccnc(Nc3ccc(N4CCOCC4)cc3)n2)cc1)[C@@H]1CCCN1

>  <category>
-1

$$$$
>  <compound>
CNC(=O)c1ccc(Nc2nc(OC3CCCC3)c3c(-c4ccc5nc(C)oc5c4)c[nH]c3n2)c(OC)c1

>  <category>
-1

$$$$
>  <compound>
COc1cc2ncnc(Nc3ccc(F)c(Cl)c3)c2cc1NC(=O)/C=C/CN1CCCCC1 [DACOMITINIB ANHYDROUS]

>  <category>
1

$$$$
>  <compound>
O=C1N/C(=N/c2ccccc2F)S/C1=C\c1ccc(C(=O)O)cc1

>  <category>
1

$$$$

* * *

System: Fibroblast
Experiment: Incucyte cell viability with human fibroblast; further: filed as whole numbers so only -1 and 0 and 1 occur
Type: toxicity, cell-based
Conditions: 0 h, 10 µM, compound concentration 10 uM, replicate number 1, timepoint 0 hours
Examples of compounds with documented Growth Rate follow.
measurementName: Growth Rate

>  <chemSmiles>
Cc1cc(C)c(S(=O)(=O)N(Cc2ccc(-c3cccc(S(C)(=O)=O)c3)cc2)Cc2ccc(C(F)(F)F)o2)c(C)c1

>  <measurementName>
Growth Rate

>  <result>
1

$$$$
>  <chemSmiles>
CCN1CCN(Cc2ccc(Nc3ncc(F)c(-c4cc(F)c5nc(C)n(C(C)C)c5c4)n3)nc2)CC1.CS(=O)(=O)O

>  <measurementName>
Growth Rate

>  <result>
0

$$$$
>  <chemSmiles>
C[C@@H]1CN(c2cc(-c3n[nH]c4ccc(OC5(C)CC5)cc34)ncn2)C[C@H](C)O1

>  <measurementName>
Growth Rate

>  <result>
0

$$$$
>  <chemSmiles>
O=C(Nc1ccc(Cl)cc1)Nc1cccc(-c2cccc(N3CCCC3)n2)c1

>  <measurementName>
Growth Rate

>  <result>
0

$$$$

* * *

Tested on: HEK-293T
Assay: Multiplex assay against HEK293T
Format: toxicity, cell-based
Conditions: human, 24 h, 10 µM, compound concentration 10 uM, replicate 1

>  <compound>
CCCn1c(=O)c2[nH]c(-c3cnn(Cc4cccc(C(F)(F)F)c4)c3)nc2n(CC)c1=O

>  <Population Healthy Nuclei (%)>
18

$$$$
>  <compound>
CN1CCC(=C2c3ccccc3CC(=O)c3sccc32)CC1.O=C(O)/C=C/C(=O)O [KETOTIFEN FUMARATE]

>  <Population Healthy Nuclei (%)>
32

$$$$
>  <compound>
COc1ccc(S(=O)(=O)N(CCO)c2ccccc2CN(C)C/C=C/c2ccc(Cl)cc2)cc1.O=P(O)(O)O

>  <Population Healthy Nuclei (%)>
80

$$$$
>  <compound>
CCCS(=O)(=O)Nc1ccc(F)c(C(=O)c2c[nH]c3ncc(Cl)cc23)c1F

>  <Population Healthy Nuclei (%)>
78

$$$$
>  <compound>
Cc1ccc(C(=O)Nc2cccc(C(F)(F)F)c2)cc1Nc1nc(-c2cccnc2)nc2c1cnn2C

>  <Population Healthy Nuclei (%)>
10

$$$$
>  <compound>
C=C1/C(=C\C=C2/CCC[C@]3(C)[C@@H]([C@H](C)/C=C/[C@H](C)C(C)C)CC[C@@H]23)C[C@@H](O)C[C@@H]1O

>  <Population Healthy Nuclei (%)>
26

$$$$
>  <compound>
CCOc1cc2ncc(C#N)c(Nc3ccc(OCc4ccccn4)c(Cl)c3)c2cc1NC(=O)/C=C/CN(C)C

>  <Population Healthy Nuclei (%)>
50

$$$$
>  <compound>
CN1C2CCC1CC(OC(c1ccc(F)cc1)c1ccc(F)cc1)C2.Cl (configuration not stated)

>  <Population Healthy Nuclei (%)>
13

$$$$
>  <compound>
CCOC(=O)c1c(C)[nH]c2ccc3c(c12)CN1CCc2cc(OC)ccc2C1O3 (configuration not stated)

>  <Population Healthy Nuclei (%)>
8

$$$$
>  <compound>
Cn1nc(C(F)(F)F)cc1-c1cnc(N2CCc3cc(S(=O)(=O)Nc4c(F)cc(Cl)cc4F)cc(N4CCCC4=O)c32)nc1

>  <Population Healthy Nuclei (%)>
77

$$$$
>  <compound>
O=C(Cc1ccc(-c2ccc(OCCN3CCOCC3)cc2)cn1)NCc1ccccc1

>  <Population Healthy Nuclei (%)>
16

$$$$
>  <compound>
COC(=N)c1nc2ccc3ncnc(Nc4ccc(OC)cc4F)c3c2s1

>  <Population Healthy Nuclei (%)>
82

$$$$
>  <compound>
O=C1N/C(=N/c2ccccc2F)S/C1=C\c1ccc(C(=O)O)cc1

>  <Population Healthy Nuclei (%)>
46

$$$$
>  <compound>
O=C(Nc1ccc(Cl)cc1)Nc1cccc(-c2cccc(N3CCCC3)n2)c1

>  <Population Healthy Nuclei (%)>
6

$$$$
>  <compound>
O=C(Nc1ccc(-c2ccnc(Nc3ccc(N4CCOCC4)cc3)n2)cc1)[C@@H]1CCCN1

>  <Population Healthy Nuclei (%)>
24

$$$$
>  <compound>
CCOc1cc(C(=O)N2CCC(N3CCN(C)CC3)CC2)ccc1Nc1ncc2c(n1)N(C1CCCC1)c1ccccc1C(=O)N2C

>  <Population Healthy Nuclei (%)>
4

$$$$
>  <compound>
COc1cc2ncnc(Nc3ccc(F)c(Cl)c3)c2cc1NC(=O)/C=C/CN1CCCCC1 [DACOMITINIB ANHYDROUS]

>  <Population Healthy Nuclei (%)>
79

$$$$

* * *

Tested on: Fibroblast
Experiment: Multiplex assay against human fibroblast
Format: toxicity, cell-based
Details: 12 h, 10 µM, compound concentration 10 uM, replicate 1
measurementName: Total Cell Count

>  <molecule>
CCCn1c(=O)c2[nH]c(-c3cnn(Cc4cccc(C(F)(F)F)c4)c3)nc2n(CC)c1=O

>  <quantitativeResult>
221

$$$$
>  <molecule>
CCN1CCN(Cc2ccc(Nc3ncc(F)c(-c4cc(F)c5nc(C)n(C(C)C)c5c4)n3)nc2)CC1.CS(=O)(=O)O

>  <quantitativeResult>
158

$$$$
>  <molecule>
O=C(Nc1ccc(Cl)cc1)Nc1cccc(-c2cccc(N3CCCC3)n2)c1

>  <quantitativeResult>
142

$$$$
>  <molecule>
COc1ccc(-c2ccc3c(N4CCOCC4)nc(N4C[C@@H](C)O[C@@H](C)C4)nc3n2)cc1CO

>  <quantitativeResult>
736

$$$$
>  <molecule>
CCCS(=O)(=O)c1nc(NC2CC2)cc(-c2ccc3c(ccn3C3CC(C)(C)NC(C)(C)C3)c2)n1

>  <quantitativeResult>
124

$$$$
>  <molecule>
CCOC(=O)c1c(C)[nH]c2ccc3c(c12)CN1CCc2cc(OC)ccc2C1O3 (stereo not drawn)

>  <quantitativeResult>
88

$$$$
>  <molecule>
Cc1ccc2nc(NCCN)c3ncc(C)n3c2c1.O=C(O)C(F)(F)F.O=C(O)C(F)(F)F

>  <quantitativeResult>
309

$$$$
>  <molecule>
CCc1cccc(CC)c1NC(=O)c1nn(C)c2c1CCc1cnc(Nc3ccc(N4CCN(C)CC4)cc3OC)nc1-2

>  <quantitativeResult>
213

$$$$

* * *

Test system: Fibroblast
Assay: Multiplex assay against human fibroblast
Assay type: toxicity, cell-based
Settings: 24 h, 10 µM, compound concentration 10 uM, replicate 2
measurementName: Population Apoptotic (%)

>  <compound>
COc1cc2ncnc(Nc3ccc(F)c(Cl)c3)c2cc1NC(=O)/C=C/CN1CCCCC1 [DACOMITINIB ANHYDROUS]

>  <measurementName>
Population Apoptotic (%)

>  <quantitativeResult>
33

$$$$
>  <compound>
CCc1cccc(CC)c1NC(=O)c1nn(C)c2c1CCc1cnc(Nc3ccc(N4CCN(C)CC4)cc3OC)nc1-2

>  <measurementName>
Population Apoptotic (%)

>  <quantitativeResult>
66

$$$$
>  <compound>
CN(C)C(=O)C(CCN1CCC(O)(c2ccc(Cl)cc2)CC1)(c1ccccc1)c1ccccc1.Cl [LOPERAMIDE HYDROCHLORIDE]

>  <measurementName>
Population Apoptotic (%)

>  <quantitativeResult>
98

$$$$
>  <compound>
Cl.O=c1c2cccn2c2ccccc2n1CCCN1CCC(c2ccc(Cl)cc2)CC1

>  <measurementName>
Population Apoptotic (%)

>  <quantitativeResult>
87

$$$$
